Values from PubChem BioAssay (NCI)

system: A549 NSCLC; experiment: NCI tumour cell line growth inhibition, 48 h

{"compound": "O=C(N/N=C/c1cccc(F)c1)c1ccncc1", "system.tested": "A549 NSCLC", "TGI": "> 100 µM"}
{"compound": "O=C(O)c1ccc(C2C(=O)N[C@@H]3CCC[C@H]23)cc1 (some centres undefined)", "system.tested": "A549 NSCLC", "TGI": "> 100 µM"}
{"compound": "Cc1ccc(/C=C2\\Cc3c(C)cc(C)cc3C2=O)c(C(=O)O)c1", "system.tested": "A549 NSCLC", "TGI": "> 100 µM"}
{"compound": "COc1nc(C#CC(C)(C)C)nc(OC)n1", "system.tested": "A549 NSCLC", "TGI": "> 100 µM"}
{"compound": "COc1c(O)c2c(=O)cc(OC)c3c4c(OC)cc(=O)c5c(O)c(OC)c6c(c(c1C(C(C)O)C6C(C)O)c23)c54 (centres undefined)", "system.tested": "A549 NSCLC", "TGI": "2.66 µM"}
{"compound": "CC(=O)OC(Cn1cncn1)(Cn1cncn1)c1ccc(Cl)cc1Cl", "system.tested": "A549 NSCLC", "TGI": "> 100 µM"}
{"compound": "CC(=O)OCC1OC(N2C(=O)C(=O)c3ccccc32)C(OC(C)=O)C(OC(C)=O)C1OC(C)=O (centres undefined)", "system.tested": "A549 NSCLC", "TGI": "> 100 µM"}
{"compound": "CCN(C(=O)/C=C/c1ccco1)c1ccccc1", "system.tested": "A549 NSCLC", "TGI": "> 100 µM"}
{"compound": "COc1cc(NCCCCCCCNC(C)C)c2nccc(C)c2c1", "system.tested": "A549 NSCLC", "TGI": "38.3 µM"}
{"compound": "COc1ccc(COCC[C@H](C)OC2OC(CO[Si](C)(C)C(C)(C)C)C(OC(=O)CCCN=[N+]=[N-])C(OC(=O)CCCN=[N+]=[N-])C2OC(=O)CCCN=[N+]=[N-])cc1 (some centres undefined)", "system.tested": "A549 NSCLC", "TGI": "> 100 µM"}
{"compound": "O=C(Nc1noc(-c2ccccc2)n1)c1ccccc1CNc1noc(-c2ccccc2)n1", "system.tested": "A549 NSCLC", "TGI": "> 100 µM"}
{"compound": "Nc1ncnc2c1ncn2CC(O)CO (centres undefined)", "system.tested": "A549 NSCLC", "TGI": "> 100 µM"}
{"compound": "CCON1CC(C(=O)OC)=C(O)C1=O", "system.tested": "A549 NSCLC", "TGI": "> 100 µM"}
{"compound": "CSC(=NCCc1c[nH]c2ccccc12)NC#N", "system.tested": "A549 NSCLC", "TGI": "> 100 µM"}
{"compound": "CCCCCCCCCc1nn2c(Cc3ccccc3)nnc2s1", "system.tested": "A549 NSCLC", "TGI": "41.5 µM"}
{"compound": "C\\C(=N/N=C1/C(=C\\N(C)C)C(=O)NC(=O)N1C)c1ccc(Cl)cc1", "system.tested": "A549 NSCLC", "TGI": "> 100 µM"}
{"compound": "CC(C)(C)c1cc(C(=O)/C=C/c2ccc3c(c2)OCO3)cc(C(C)(C)C)c1O", "system.tested": "A549 NSCLC", "TGI": "> 86.6 µM"}
{"compound": "COc1ccc(C(=O)NCCN(C)C)c2nc3ccccc3nc12", "system.tested": "A549 NSCLC", "TGI": "> 100 µM"}
{"compound": "O=c1[nH]nc(Cc2ccccc2)n1/N=C/c1ccncc1", "system.tested": "A549 NSCLC", "TGI": "> 100 µM"}
{"compound": "O=[N+]([O-])c1ccc2c(c1)C1=NN(c3ccccc3)C(c3ccccc3Br)C1CCC2 (centres undefined)", "system.tested": "A549 NSCLC", "TGI": "> 50 µM"}
{"compound": "COC1=C(C)C(=O)c2c(c(COC(N)=O)c3n2CC(OC(C)=O)C3OC(C)=O)C1=O (centres undefined)", "system.tested": "A549 NSCLC", "TGI": "1.6 µM"}
{"compound": "CC(C)(Oc1ccc(/C=C/C(=O)c2ccc(Cl)cc2)cc1)C(=O)Nc1c(Cl)cccc1Cl", "system.tested": "A549 NSCLC", "TGI": "> 100 µM"}
{"compound": "COC(=O)[C@H](Cc1ccccc1)NC(=O)CCCCCCC(=O)NO", "system.tested": "A549 NSCLC", "TGI": "> 100 µM"}
{"compound": "N#Cc1nc(C2CCC2)oc1N", "system.tested": "A549 NSCLC", "TGI": "> 100 µM"}
